Assay target: T1, rat APJ receptor (rat, UniProt Q9JHG3 1-377)
T1 sequence (looked up): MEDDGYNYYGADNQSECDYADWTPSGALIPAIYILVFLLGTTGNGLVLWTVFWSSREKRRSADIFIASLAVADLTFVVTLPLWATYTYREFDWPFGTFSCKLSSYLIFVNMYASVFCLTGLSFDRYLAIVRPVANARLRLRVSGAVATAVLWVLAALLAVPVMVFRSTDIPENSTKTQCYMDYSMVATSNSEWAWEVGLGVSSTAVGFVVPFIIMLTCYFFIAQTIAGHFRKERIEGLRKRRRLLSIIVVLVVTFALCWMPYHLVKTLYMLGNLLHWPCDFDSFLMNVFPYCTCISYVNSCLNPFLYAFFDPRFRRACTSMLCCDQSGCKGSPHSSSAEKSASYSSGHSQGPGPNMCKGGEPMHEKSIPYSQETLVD
Test: cell-based or functional assay
Starred links: 1 amine or outer side, 2 acyl side, 3 side chain; linkers in the order of their positions; H or OH if unused. Non-standard residues stand in square brackets, D forms with d. No end group written: not given here. rhArg = homoarginine with ψ(CH2NH) reduced amide bond, N=C(N)NCCCC[C@@H](C[*:2])N[*:1]; Oic = O=C(O)[C@@H]1C[C@@H]2CCCC[C@@H]2N1; Phe(4-Cl) = N[C@@H](Cc1ccc(Cl)cc1)C(=O)O; NMeR = CN[C@@H](CCCNC(=N)N)C(=O)O; hArg = N=C(N)NCCCC[C@H](N)C(=O)O; Cha = N[C@@H](CC1CCCCC1)C(=O)O; Nle = CCCC[C@H](N)C(=O)O; Orn = NCCC[C@H](N)C(=O)O; Aib = CC(C)(N)C(=O)O; βAla = NCCC(=O)O; Sar = CNCC(=O)O
Measurement label: EC50 Rat APJ Receptor
Your answer should be a number followed by the unit of measure.

Consider [Orn]F[hArg][hArg]Q[hArg]P[hArg][Cha][Sar]HKG[Oic][Nle]P[Phe(4-Cl)] [apelin polypeptide SEQ ID NO: 678] . Its measured EC50 Rat APJ Receptor is 2.11 nM

Consider Ac-[Orn]F[hArg][hArg]Q[rhArg]P[hArg][Cha]SHKG[Oic][Nle]P[Phe(4-Cl)]-OH (also: reduced amide bond (CH2NH) at residue 6) [apelin polypeptide SEQ ID NO: 38] . Its measured EC50 Rat APJ Receptor is 1.3 nM

Consider [Orn]F[hArg][hArg]Q[NMeR]P[NMeR][Cha]SHKG[Oic][Nle]P[Phe(4-Cl)] [apelin polypeptide SEQ ID NO: 672] . Its measured EC50 Rat APJ Receptor is 0.845 nM

Consider [Orn]F[hArg][hArg]Q[hArg]P[hArg][Cha]SHK[Aib][Oic][Nle]P[Phe(4-Cl)] [apelin polypeptide SEQ ID NO: 681] . Its measured EC50 Rat APJ Receptor is 1.3 nM

Consider [Orn]F[hArg][hArg]Q[hArg]P[hArg][Cha]SH[βAla]G[Oic][Nle]P[Phe(4-Cl)] [apelin polypeptide SEQ ID NO: 703] . Its measured EC50 Rat APJ Receptor is 2.67 nM

Each recorded value in this set is attributed to patent US10941182.
